- protocol_notes: Tolerability in Sprague-Dawley rats: hematology assays (Example 35)
- measurement_setup: 50 mg/kg s.c. twice per week for 6 weeks
property_name: lymphocytes

substance="ISIS 416838: MOE gapmer, nucleobases 1018 to 1042 of SEQ ID NO: 1 (Table 6) (antisense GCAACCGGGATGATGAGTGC; MOE gapmer, wing and gap sizes not given here)" measured_result=3%
substance="ISIS 416858: MOE gapmer, nucleobases 1275 to 1318 of SEQ ID NO: 1 (Table 8) (antisense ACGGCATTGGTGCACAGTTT; MOE gapmer, wing and gap sizes not given here)" measured_result=3%
substance="ISIS 417002: MOE gapmer, nucleobases 1275 to 1318 of SEQ ID NO: 1 (Table 8) (antisense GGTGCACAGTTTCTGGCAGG; MOE gapmer, wing and gap sizes not given here)" measured_result=4%
substance="ISIS 416864: MOE gapmer, nucleobases 1275 to 1318 of SEQ ID NO: 1 (Table 8) (antisense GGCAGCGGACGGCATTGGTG; MOE gapmer, wing and gap sizes not given here)" measured_result=2%
substance="ISIS 416850: MOE gapmer, nucleobases 1275 to 1318 of SEQ ID NO: 1 (Table 8) (antisense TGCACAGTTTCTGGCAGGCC; MOE gapmer, wing and gap sizes not given here)" measured_result=8%

These data points were gathered from patent US20230263822A1.
